The values you see were collected from the METLIN SMRT retention time set (Domingo-Almenara et al. 2019).

- Assay overview: gradient 5% acetonitrile 3 min, to 50% in 2 min, to 85% in 15 min, held 3 min, 100 µL/min
- Conditions used: column: Zorbax Extend-C18 2.1 x 50 mm; eluents: water / acetonitrile, 0.1% formic acid
Measure name: RP-LC retention time (s)

Solved entries (count: 10):
compound=CCn1c(CCNC(=O)c2cccc(N(C)C)c2)nc2cccnc21 measure_name="RP-LC retention time" result=586
compound="CN1C(=O)C2CCCCN2c2ccc(C(=O)NCCCN3CCN(C4CCCCC4)CC3)cc21 (stereo not given)" measure_name="RP-LC retention time" result=594
compound="Cc1ccc(CCCN2CCCC(COc3ccccc3C(=O)N3CCCCC3)C2)o1 (stereo not given)" measure_name="RP-LC retention time" result=748
compound=COc1ccc(-c2cn3c(CC(=O)Nc4ccc(S(N)(=O)=O)cc4)csc3n2)cc1OC measure_name="RP-LC retention time" result=630
compound=CC(C)Cn1c(=O)c2cc(C(=O)NCc3cccs3)nn2c2ccccc21 measure_name="RP-LC retention time" result=995
compound=CCCOC(=O)c1ccc(Nc2nc(C(=O)OCC)nc3ccccc23)cc1 measure_name="RP-LC retention time" result=1020
compound=O=C(c1cccs1)N1[C@H]2CC[C@@H]1c1cnc(-c3ccccc3)nc1C2 measure_name="RP-LC retention time" result=907
compound="CC(NC(=O)C1CCN(C(=O)c2ncn3c2COC(c2ccc(Cl)cc2)C3)CC1)c1ccccc1 (stereo not given)" measure_name="RP-LC retention time" result=854
compound="CCC(C)NC(=O)Cn1ccn2nc(-c3ccc(F)cc3)c(CO)c2c1=O (stereo not given)" measure_name="RP-LC retention time" result=725
compound=CCc1cc(=O)n(CC(=O)NCc2ccc(F)cc2)c(N2CCOCC2)n1 measure_name="RP-LC retention time" result=717

P. CCOc1ccc(NC(=O)Cn2c(N)nc(CC)cc2=O)cc1
Q. Cc1ccsc1C(=O)NCC12CCCC=C1N(CC1CC1)C(=O)CC2 (stereo not given)
**Query** Consider entries P and Q . Which has the numerically lower RP-LC retention time? Indicate which entry you chose by stating its label.
**Result** P

P. COC(=O)C1CCN(C(=O)c2csc(Nc3ncccn3)n2)CC1
Q. CCNS(=O)(=O)c1cccnc1Nc1cccc(F)c1
**Query** Consider entries P and Q . Which has the numerically lower RP-LC retention time? Indicate which entry you chose by stating its label.
**Result** P

A. Cc1ccc(C)c(S(=O)(=O)Nc2cnc(N3CCNCC3)c(C(=O)NC3CCCC3)c2)c1
B. COc1ccccc1-c1csc(-c2nnn(-c3ccccc3)c2N)n1
**Query** Which of the two items, A and B , has the greater recorded RP-LC retention time? Indicate which entry you chose by stating its label.
**Result** B
(B: 1070 s, A: 621 s)
